# pIC50 values compiled below
test: Cytotoxicity against human Molt4/C8 cells; format: functional, cell-based; settings: MOLT-4
pIC50: −log10 of the molar value.
OUTCOME MEASURE: pIC50

>>> measurement("C[C@H]1O[C@@H](n2ccc(=O)[nH]c2=O)C=C(F)C1=O")
5.60
>>> measurement("C[C@H]1O[C@@H](n2cc(F)c(=O)[nH]c2=O)C=C(F)C1=O")
5.48
>>> measurement("C[C@H]1O[C@@H](n2ccc(NC(=O)c3ccccc3)nc2=O)C=C(F)C1=O")
5.80
>>> measurement("Cc1cn([C@H]2C=C(F)C(=O)[C@@H](C)O2)c(=O)[nH]c1=O")
5.60
>>> measurement("C[C@H]1O[C@@H](n2cnc3c(NC(=O)c4ccccc4)ncnc32)C=C(F)C1=O")
5.30

---

system: FM3A; experiment: Cytotoxicity against mouse FM3A cells; assay type: functional, cell-based
pIC50: −log10 of the molar value.
# pIC50 values compiled below
OUTCOME MEASURE: pIC50

>>> measurement("C[C@H]1O[C@@H](n2ccc(NC(=O)c3ccccc3)nc2=O)C=C(F)C1=O")
4.92
>>> measurement("C[C@H]1O[C@@H](n2cnc3c(NC(=O)c4ccccc4)ncnc32)C=C(F)C1=O")
5.22
>>> measurement("C[C@H]1O[C@@H](n2cc(F)c(=O)[nH]c2=O)C=C(F)C1=O")
6.31
>>> measurement("C[C@H]1O[C@@H](n2ccc(=O)[nH]c2=O)C=C(F)C1=O")
4.80
>>> measurement("Cc1cn([C@H]2C=C(F)C(=O)[C@@H](C)O2)c(=O)[nH]c1=O")
5.00

---

# IC50 values compiled below
test system: CCRF-CEM; test: Cytotoxicity against human CEM cells; assay type: functional, cell-based
OUTCOME MEASURE: IC50 (nM)

>>> measurement("Cc1cn([C@H]2C=C(F)C(=O)[C@@H](C)O2)c(=O)[nH]c1=O")
2600
>>> measurement("C[C@H]1O[C@@H](n2cnc3c(NC(=O)c4ccccc4)ncnc32)C=C(F)C1=O")
4300
>>> measurement("C[C@H]1O[C@@H](n2ccc(=O)[nH]c2=O)C=C(F)C1=O")
2200
>>> measurement("C[C@H]1O[C@@H](n2cc(F)c(=O)[nH]c2=O)C=C(F)C1=O")
3700
>>> measurement("C[C@H]1O[C@@H](n2ccc(NC(=O)c3ccccc3)nc2=O)C=C(F)C1=O")
1700

The values you see were collected from ChEMBL document CHEMBL1153787.
